subject-of-test: HLA B*3501 (Homo sapiens, UniProt P01889, A329T/A93T/A95T/C349S/D201E/D98Y/E176V/E187L/E204Q/E69T/I218V/K202T/L119I/Q94N/R155S/R180L/S121R/S35A/S48A/T118I/V127L/V306I/V36M/Y140S/Y91F)
Assay type: binding
Answer n if Normalized average relative binding affinity (ARB), HLA B*3501 is under 0.07, and y if it is 0.07 or more.

See these solved cases before continuing.
INSERT INTO results (sequence_content, category_label) VALUES
  ('XVXXXXXXX [3064.0038]', 'n'),
  ('XEXXXXXXX [3064.0024]', 'n'),
  ('VXXXXXXXX [3064.0018]', 'y'),
  ('QXXXXXXXX [3064.0014]', 'y'),
  ('NXXXXXXXX [3064.0012]', 'y');

Ask: Quick check, Normalized average relative binding affinity (ARB), HLA B*3501 >= 0.07? AXXXXXXXX [3064.0001]
Reply: n

Ask: Threshold query (Normalized average relative binding affinity (ARB), HLA B*3501 >= 0.07) on FXXXXXXXX [3064.0005]
Reply: y

Ask: Does the reported Normalized average relative binding affinity (ARB), HLA B*3501 for TXXXXXXXX [3064.0017] fall at or above the 0.07 mark?
Reply: y

Ask: # check: Normalized average relative binding affinity (ARB), HLA B*3501 of IXXXXXXXX [3064.0008] is greater than or equal to 0.07
Reply: y

Ask: Reported Normalized average relative binding affinity (ARB), HLA B*3501 reaches at least 0.07 for XXAXXXXXX [3064.0041] ?
Reply: y

Ask: Test whether the sequence WXXXXXXXX [3064.0019] records Normalized average relative binding affinity (ARB), HLA B*3501 of 0.07 or higher.
Reply: y

Ask: Reported Normalized average relative binding affinity (ARB), HLA B*3501 at or above 0.07? KXXXXXXXX [3064.0009]
Reply: n

Ask: Determine whether measured Normalized average relative binding affinity (ARB), HLA B*3501 meets or exceeds 0.07 for PXXXXXXXX [3064.0013]
Reply: n

Ask: Is Normalized average relative binding affinity (ARB), HLA B*3501 at least 0.07? Consider YXXXXXXXX [3064.0020]
Reply: y

* * *

subject-of-test: H-2 D^d (Mus musculus, UniProt P01900)
Sequence (P01900 whole entry, looked up): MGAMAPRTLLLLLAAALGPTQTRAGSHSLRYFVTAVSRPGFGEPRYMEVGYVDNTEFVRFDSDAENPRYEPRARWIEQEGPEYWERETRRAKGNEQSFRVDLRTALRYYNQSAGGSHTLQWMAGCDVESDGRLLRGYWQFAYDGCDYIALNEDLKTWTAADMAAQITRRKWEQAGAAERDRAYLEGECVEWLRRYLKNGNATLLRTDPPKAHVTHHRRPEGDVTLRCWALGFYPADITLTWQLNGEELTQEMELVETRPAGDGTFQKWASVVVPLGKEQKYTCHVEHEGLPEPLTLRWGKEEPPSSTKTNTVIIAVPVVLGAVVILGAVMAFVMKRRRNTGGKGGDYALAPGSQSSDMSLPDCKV
Format: binding
quantity-name: Normalized average relative binding affinity(ARB)
Response field accepts a number only; no unit should be typed.

Just so you know, measured Normalized average relative binding affinity(ARB) for XXXXAXXXX [3064.0081] came out at 0.37

get_value(item= XXXYXXXXX [3064.0080] , readout=Normalized average relative binding affinity(ARB)) returns 1.0

Kindly note the recorded Normalized average relative binding affinity(ARB) for XXXXXXQXX [3064.0134] , which is 0.057

Record XXXRXXXXX [3064.0075] , field Normalized average relative binding affinity(ARB): 0.62

The reported value for XXXXHXXXX [3064.0087] in terms of Normalized average relative binding affinity(ARB) is 0.64

Just so you know, measured Normalized average relative binding affinity(ARB) for XXXXCXXXX [3064.0082] came out at 0.045
